test: qHTS assay to identify small molecule antagonists of the estrogen receptor alpha (ER-alpha) signaling pathway - cell viability counter screen (AID 743074); settings: ERalpha-bla HEK293 viability, CellTiter-Glo luminescence, 18 h; series mostly up to 69.4 µM;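 also: HEK293 cells carrying ER-alpha-UAS-bla reporter stimulated with 17beta-estradiol; nearly all actives have a fitted effect of over 45% in size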
Inconclusive results are not listed. Activity calls are given as the source filed them. Calls follow the shape of the full dose curve.
Pick one and only one: true for active, false for inactive

Q: Which outcome was assigned to "O=CC(=O)c1ccccc1" in this test?
Result: false

Q: Which outcome was assigned to "Cc1ncc([N+](=O)[O-])n1C" in this test?
Result: false

====

Test: A CellTox Green Cytotoxicity Assay to monitor cytotoxicity in HepG2 cells - 16 hour (AID 1224876); also: nearly all actives have a fitted effect of over 45% in size; also: potency is read from the fitted curve at half-maximal effect
Conditions: CellTox Green fluorescence; series mostly up to 76.8 µM
Text: National Center for Advancing Translational Sciences [NCATS] NIH Chemical Genomics Center [NCGC] U.S. Environmental Protection Agency [EPA] National Institutes of Environmental Health Sciences [NIEHS] National Toxicology Program [NTP] Cell-based models are critical for drug discovery. […] Viable cells produce no appreciable increases in fluorescence. Therefore, the fluorescence signal produced by the binding interaction with dead cell DNA is proportional to cytotoxicity. […]
Inconclusive results are not listed. Activity calls are given as the source filed them. The call rests on the fitted dose curve; in most records, active means well fitted activation curve with a large enough effect in the repeat runs; inconclusive means weak or mixed curves; inactive means flat fitted curve, though single readings scatter.
reported_metric: Potency

Some solved entries appear below for comparison.
test_smiles | Potency
Cc1cc(=O)oc2cc(O)ccc12 | inactive
CC(=O)Nc1c(I)c(NC(C)=O)c(I)c(C(=O)O)c1I | inactive
NC1CCCCC1 | inactive
CN1CCc2cccc3c2[C@H]1Cc1ccc(O)c(O)c1-3 | inactive
COc1ccc2cc(S(=O)(=O)N[C@H](CC(=O)N[C@H](Cc3ccc(CN4[C@H](C)CCC[C@@H]4C)cc3)C(=O)N(C)C(C)C)c3ccc4c(c3)OCO4)ccc2c1 | 52 µM (active)

Lab book: Potency of "Nc1ccc2c(c1)CN1C(=O)c3ccccc3C1=N2" noted as 10.4 µM (active)

Lab book: Potency of "NC(CO)(CO)CO" noted as inactive

Lab book: Potency of "CN(N=O)C(=O)N[C@@H]1[C@@H](O)[C@H](O)[C@@H](CO)O[C@@H]1O" noted as inactive

Lab book: Potency of "C=CCc1ccc(O)c(OC)c1" noted as inactive

Lab book: Potency of "CCCC[P+](CCCC)(CCCC)CCCC" noted as inactive

Lab book: Potency of "Nc1ccc(O)c([N+](=O)[O-])c1" noted as inactive

Lab book: Potency of "O=c1[nH]cnc2c1ncn2[C@H]1CC[C@@H](CO)O1" noted as inactive
